Assay: Half-life of compound evaluated in mice after intravenous administration
Type: ADME, organism-based
Details: mouse, in vivo

| mol | display unit | half-life |
| --- | --- | --- |
| Cc1ccc(C(=O)Nc2ccon2)cc1Nc1ncnc(NC(C)C)c1C#N | min | 102 |

###

Target: Mitogen-activated protein kinase 14 (Homo sapiens, UniProt Q16539)
Sequence (Q16539 whole entry): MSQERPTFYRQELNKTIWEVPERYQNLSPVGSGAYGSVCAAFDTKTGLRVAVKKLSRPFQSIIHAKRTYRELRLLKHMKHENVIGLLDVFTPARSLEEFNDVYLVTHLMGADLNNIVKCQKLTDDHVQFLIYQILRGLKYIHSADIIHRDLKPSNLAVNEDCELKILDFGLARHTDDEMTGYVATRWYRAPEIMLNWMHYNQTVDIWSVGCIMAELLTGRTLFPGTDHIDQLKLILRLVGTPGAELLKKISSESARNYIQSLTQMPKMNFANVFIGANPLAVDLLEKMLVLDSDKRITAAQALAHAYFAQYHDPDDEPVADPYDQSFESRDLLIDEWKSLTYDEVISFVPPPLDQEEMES
Experiment: Inhibitory concentration against p38 alpha
pIC50: −log10 of the molar value.
value kind: pIC50

| mol | result value |
| --- | --- |
| Cc1ccc(C(=O)Nc2ccon2)cc1Nc1ncnc(NC2CCCC2)c1C#N | 8.39 |

###

Molecular target: Mitogen-activated protein kinase 13 (Homo sapiens, UniProt O15264)
Sequence (O15264 whole entry): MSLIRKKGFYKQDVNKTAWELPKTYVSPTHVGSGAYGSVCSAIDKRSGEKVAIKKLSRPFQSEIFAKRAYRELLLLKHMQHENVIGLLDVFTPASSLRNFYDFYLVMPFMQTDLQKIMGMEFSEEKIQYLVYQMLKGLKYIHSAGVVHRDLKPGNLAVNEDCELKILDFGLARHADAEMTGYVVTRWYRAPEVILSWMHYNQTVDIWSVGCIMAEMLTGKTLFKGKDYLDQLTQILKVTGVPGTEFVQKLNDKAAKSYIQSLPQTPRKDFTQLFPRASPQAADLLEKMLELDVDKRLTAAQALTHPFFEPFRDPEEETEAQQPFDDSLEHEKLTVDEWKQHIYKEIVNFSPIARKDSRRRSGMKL
Assay: Inhibitory concentration against p38 delta
pIC50: −log10 of the molar value.
value kind: pIC50

| mol | result value |
| --- | --- |
| Cc1ccc(C(=O)Nc2ccon2)cc1Nc1ncnc(NC2CCCC2)c1C#N | < 4.52 |
